Measured IC50, listed per entry for reference.
- test.target: T1, full-length beta-Catenin (Uniprot ID P35222) (Homo sapiens (Human), UniProt P35222 2-781)
- T1 construct: also called bCat; B-Catenin
- T1 sequence: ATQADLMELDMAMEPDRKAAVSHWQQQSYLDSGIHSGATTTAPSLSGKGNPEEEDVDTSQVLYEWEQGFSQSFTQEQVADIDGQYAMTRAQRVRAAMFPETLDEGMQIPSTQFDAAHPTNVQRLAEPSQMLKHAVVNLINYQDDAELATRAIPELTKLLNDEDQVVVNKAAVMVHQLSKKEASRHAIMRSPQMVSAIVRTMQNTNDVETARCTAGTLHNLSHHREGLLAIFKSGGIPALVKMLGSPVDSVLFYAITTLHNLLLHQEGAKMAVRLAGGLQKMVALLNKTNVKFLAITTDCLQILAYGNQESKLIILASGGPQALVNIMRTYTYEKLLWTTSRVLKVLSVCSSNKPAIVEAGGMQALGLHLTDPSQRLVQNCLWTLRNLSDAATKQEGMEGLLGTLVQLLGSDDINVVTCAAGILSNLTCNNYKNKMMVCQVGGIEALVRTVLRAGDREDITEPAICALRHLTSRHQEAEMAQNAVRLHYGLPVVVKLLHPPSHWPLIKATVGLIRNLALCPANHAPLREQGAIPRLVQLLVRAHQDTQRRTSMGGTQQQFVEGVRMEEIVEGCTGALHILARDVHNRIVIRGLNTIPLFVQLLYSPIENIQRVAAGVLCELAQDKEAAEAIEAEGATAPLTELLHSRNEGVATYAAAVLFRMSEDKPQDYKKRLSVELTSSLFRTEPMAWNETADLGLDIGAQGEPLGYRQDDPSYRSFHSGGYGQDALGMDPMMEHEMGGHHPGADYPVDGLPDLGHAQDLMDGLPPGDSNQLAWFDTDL
- measurement.notes: fluorescence polarization competition; full-length beta-catenin, 5FAM-TCF4(10-53) probe as competitor
Starred links: 1 amine or outer side, 2 acyl side, 3 side chain; linkers in the order of their positions; H or OH if unused. Positions of bridges follow the written chain, without caps; N, C: chain ends. Non-standard residues stand in square brackets, D forms with d. Primed or numbered codes have the meaning given here. PyrS2″ = (S)-3-amino-1-((pent-4-en-1-yloxy)carbonyl)pyrrolidine-3-carboxylic acid (stapling residue), C=CCCCOC(=O)N1CC[C@@](N[*:1])(C(=O)[*:2])C1; B5(4) = 2,2-bis(4-pentenyl)glycine = 2-amino-2-(pent-4-en-1-yl)hept-6-enoic acid (stitching residue), C=CCCCC(CCCC=C)(N[*:1])C(=O)[*:2]; Trp(1-Me) = Cn1cc(C[C@H](N)C(=O)O)c2ccccc21; Bta = N[C@@H](Cc1csc2ccccc12)C(=O)O; Lys(iPr) = CC(C)NCCCC[C@H](N)C(=O)O; αAllylPro = C=CC[C@@]1(C(=O)O)CCCN1; tBuAla = CC(C)(C)C[C@H](N)C(=O)O
Report as: number unit

Ac-[αAllylPro]NL[B5(4)]DT[Lys(iPr)]AFL[PyrS2″]F[Bta]Q-NH2 (staple 1-4, 4-11) [I-1582] : 1.22 µM
Ac-[αAllylPro]N[tBuAla][B5(4)]DT[Lys(iPr)]AFL[PyrS2″]FYQ-NH2 (staple 1-4, 4-11) [I-1585] : 10 µM
Ac-[αAllylPro]NS[B5(4)]DT[Lys(iPr)]AFL[PyrS2″]F[Bta]Q-NH2 (staple 1-4, 4-11) [I-1583] : 3.42 µM

Kindly review the next binder as well.
IC50 reported for this binder Ac-[αAllylPro]N[tBuAla][B5(4)]DT[Lys(iPr)]AFL[PyrS2″]F[Trp(1-Me)]Q-NH2 (staple 1-4, 4-11) [I-1589] : 10 µM
